Data export: pIC50 values recorded with BRAFWT (Homo sapiens).
Sequence (P15056 whole entry): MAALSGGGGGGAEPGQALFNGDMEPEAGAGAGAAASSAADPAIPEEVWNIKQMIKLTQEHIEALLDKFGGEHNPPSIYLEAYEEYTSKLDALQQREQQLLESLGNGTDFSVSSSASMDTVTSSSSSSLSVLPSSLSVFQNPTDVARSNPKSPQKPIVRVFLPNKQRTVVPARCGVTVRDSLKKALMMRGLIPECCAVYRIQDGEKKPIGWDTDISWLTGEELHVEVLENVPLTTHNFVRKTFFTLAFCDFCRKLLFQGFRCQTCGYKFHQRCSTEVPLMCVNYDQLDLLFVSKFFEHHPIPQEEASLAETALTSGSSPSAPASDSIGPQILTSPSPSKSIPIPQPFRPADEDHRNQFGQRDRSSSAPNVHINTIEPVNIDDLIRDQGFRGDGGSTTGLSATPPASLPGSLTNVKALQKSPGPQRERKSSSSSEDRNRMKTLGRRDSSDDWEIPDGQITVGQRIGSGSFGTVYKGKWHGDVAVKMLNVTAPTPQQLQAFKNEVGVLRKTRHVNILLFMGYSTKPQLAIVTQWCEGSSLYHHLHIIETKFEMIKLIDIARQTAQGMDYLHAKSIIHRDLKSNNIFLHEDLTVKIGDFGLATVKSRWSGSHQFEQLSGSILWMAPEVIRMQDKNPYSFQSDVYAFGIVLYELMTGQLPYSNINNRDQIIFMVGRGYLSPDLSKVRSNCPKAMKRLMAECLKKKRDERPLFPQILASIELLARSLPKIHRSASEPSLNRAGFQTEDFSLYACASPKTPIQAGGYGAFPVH
pIC50: −log10 of the molar value.

// below: answered compounds
>>> print(df.to_string())
                                   compound  reported_endpoint  result
0  CN1CCN(c2cc(C(=O)Nc3cccc(-c4cc(C(=O)OCCN5CCOCC5)[nH]n4)c3)cc(C(F)(F)F)c2)CC1 [Compound 23d]              pIC50  < 4.70
1  Cc1nccn1-c1cc(C(=O)Nc2cccc(-c3cc(C(=O)OCCN4CCOCC4)[nH]n3)c2)cc(C(F)(F)F)c1 [Compound 23b]              pIC50  < 4.70
2  O=C(Nc1cccc(-c2cc(C(=O)NCCN3CCNCC3)[nH]n2)c1)c1cc(N2CCOCC2)cc(C(F)(F)F)c1 [Compound 22a]              pIC50  < 4.70
3  O=C(Nc1cccc(-c2cc(C(=O)OCCN3CCCCC3)[nH]n2)c1)c1cc(N2CCOCC2)cc(C(F)(F)F)c1              pIC50  < 4.70
4  O=C(Nc1cccc(-c2cc(C(=O)OCCN3CCOCC3)[nH]n2)c1)c1cc(N2CCOCC2)cc(C(F)(F)F)c1 [Compound 23a]              pIC50  < 4.70

// lookup pIC50 for Cc1nccn1-c1cc(C(=O)Nc2cccc(-c3cc(C(=O)NCCN4CCNCC4)[nH]n3)c2)cc(C(F)(F)F)c1 [Compound 22b]
4.89

Tell me the measured pIC50 of O=C(Nc1cccc(-c2cc(C(=O)NCCN3CCOCC3)[nH]n2)c1)c1cc(N2CCOCC2)cc(C(F)(F)F)c1 [Compound 20a] , please.
4.79

State the recorded pIC50 for this entry: Cc1cn(-c2cc(C(=O)Nc3cccc(-c4cc(C(=O)OCCN5CCOCC5)[nH]n4)c3)cc(C(F)(F)F)c2)cn1 [Compound 23c]
< 4.70

I have this compound here, Cc1cn(-c2cc(C(=O)Nc3cccc(-c4cc(C(=O)NCCN5CCOCC5)[nH]n4)c3)cc(C(F)(F)F)c2)cn1 [Compound 20c] , and I need its recorded pIC50.
4.83

Consider the compound shown here: CN1CCN(c2cc(C(=O)Nc3cccc(-c4cc(C(=O)NCCN5CCOCC5)[nH]n4)c3)cc(C(F)(F)F)c2)CC1 [Compound 20d] What is its recorded pIC50?
< 4.70

So what's the measured pIC50 for this one? Cc1nccn1-c1cc(C(=O)Nc2cccc(-c3cc(C(=O)NCCN4CCOCC4)[nH]n3)c2)cc(C(F)(F)F)c1 [Compound 20b]
4.88

meta.source: paper PMC6691785
